All values here come from ChEMBL document CHEMBL3351807.

Parameter: IC50. Scope: all listed entries.
Tested on: RAW264.7
Test: Inhibition of LPS-induced IL-1beta production in mouse RAW264.7 cells after 24 hrs by ELISA
Type: functional, cell-based
Details: RAW264.7, 24 h

{"columns": ["Compound", "Test System", "Result Comparator", "IC50 [µM]"],
 "data": [
  ["CC(C)=CCc1cc(-c2cc(=O)c3c(O)cc(O)c(CC=C(C)C)c3o2)ccc1O", "RAW264.7", "=", 8.6],
  ["COc1ccc2c(c1)c(CC(=O)O)c(C)n2C(=O)c1ccc(Cl)cc1", "RAW264.7", "=", 18.7],
  ["C=CCc1ccc(O)c(-c2cc(CC=C)ccc2O)c1", "RAW264.7", "=", 38.9],
  ["COc1c(O)cc(-c2cc(=O)c3c(O)cc(O)c(CC=C(C)C)c3o2)cc1CC=C(C)C", "RAW264.7", "=", 8.8],
  ["CC1(C)C=Cc2c(cc(O)c3c(=O)cc(Oc4ccc(O)cc4)oc23)O1", "RAW264.7", ">", 50],
  ["COc1cc2c(cc1OC)-c1c(cc(OC)c(OC)c1OC)CC2", "RAW264.7", ">", 50],
  ["CC1(C)C[C@@H](O)C[C@@]2(C)OC(=O)C=C12 [(+)-EPILOLIOLIDE]", "RAW264.7", ">", 50],
  ["CC1(C)C[C@H](O)C[C@@]2(C)OC(=O)C=C12 [LOLIOLIDE]", "RAW264.7", ">", 50],
  ["COc1cc(C[C@@]2(O)CO[C@H](c3ccc(O)c(OC)c3)[C@H]2COC(C)=O)ccc1O", "RAW264.7", ">", 50],
  ["COc1cc([C@@H]2OC[C@@H]3[C@H]2CO[C@H]3c2cc(OC)c(O)c(OC)c2)cc(OC)c1O", "RAW264.7", ">", 50],
  ["COc1ccc(Oc2cc(=O)c3cc(O)c(CC=C(C)C)c(O)c3o2)cc1", "RAW264.7", "=", 28.9]
]}
